Assay overview: Inhibitory concentration of Bacillus stearothermophilus glucosidase (of family 13 alpha-glucosidase) at 1 umol/mL
Set-up: species or system Geobacillus stearothermophilus
pIC50: −log10 of the molar value.
Endpoint: pIC50

| Compound | Result |
| --- | --- |
| O=C(CCCCO)NCC1OC(CO)C(O)C(O)C1O (stereo unspecified) | 3.38 |

---

Experimental target: Alpha-glucosidase (Beta vulgaris) (UniProt O04931)
Sequence (O04931 whole entry): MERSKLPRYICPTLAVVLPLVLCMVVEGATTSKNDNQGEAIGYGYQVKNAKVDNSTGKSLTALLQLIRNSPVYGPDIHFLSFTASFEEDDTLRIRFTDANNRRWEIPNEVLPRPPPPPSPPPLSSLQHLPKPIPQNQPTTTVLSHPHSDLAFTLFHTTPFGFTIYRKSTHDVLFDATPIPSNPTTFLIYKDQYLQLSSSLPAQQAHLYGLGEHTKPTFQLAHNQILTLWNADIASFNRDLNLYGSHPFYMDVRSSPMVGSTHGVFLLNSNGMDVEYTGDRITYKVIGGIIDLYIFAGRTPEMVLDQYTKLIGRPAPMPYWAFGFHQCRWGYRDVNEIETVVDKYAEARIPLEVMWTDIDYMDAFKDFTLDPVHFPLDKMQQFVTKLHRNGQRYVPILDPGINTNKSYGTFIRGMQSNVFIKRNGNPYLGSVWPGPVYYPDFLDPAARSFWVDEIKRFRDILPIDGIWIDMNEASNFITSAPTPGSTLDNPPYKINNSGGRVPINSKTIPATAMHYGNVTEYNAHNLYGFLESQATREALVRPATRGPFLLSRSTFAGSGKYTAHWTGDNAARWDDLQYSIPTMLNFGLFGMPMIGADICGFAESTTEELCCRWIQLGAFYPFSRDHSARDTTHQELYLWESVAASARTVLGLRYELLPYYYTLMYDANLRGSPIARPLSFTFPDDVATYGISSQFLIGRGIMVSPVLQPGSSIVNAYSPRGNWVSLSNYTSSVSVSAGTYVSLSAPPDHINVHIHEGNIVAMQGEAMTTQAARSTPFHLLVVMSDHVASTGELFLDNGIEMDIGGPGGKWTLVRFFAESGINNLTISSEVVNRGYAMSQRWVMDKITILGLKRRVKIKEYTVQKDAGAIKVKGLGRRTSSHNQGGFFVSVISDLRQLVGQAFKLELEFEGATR
Assay overview: Inhibition of Sugar beet glucosidase (of family 31 alpha-glucosidase) at 1 umol/mL
Details: Beta vulgaris subsp. vulgaris

| Compound | inhibition (%) |
| --- | --- |
| O=C(CO)NCC1OC(CO)C(O)C(O)C1O (configuration not stated) | 6.9 |
| O=C(CCCCCO)NCC1OC(CO)C(O)C(O)C1O (configuration not stated) | 11.9 |
| O=C(CCCO)NCC1OC(CO)C(O)C(O)C1O (configuration not stated) | 3.6 |
| CC(=O)NCC1OC(CO)C(O)C(O)C1O (configuration not stated) | 8.8 |
| O=C(CCCCO)NCC1OC(CO)C(O)C(O)C1O (configuration not stated) | 3.1 |
| O=C(CCO)NCC1OC(CO)C(O)C(O)C1O (configuration not stated) | 1.7 |
| CC(C)(C)C(=O)NCC1OC(CO)C(O)C(O)C1O (configuration not stated) | 3.2 |

---

Catalogue of inhibition readings, one per entry.
Experimental target: Alpha-glucosidase (Oryza sativa Japonica Group) (UniProt Q9LGC6)
Sequence (Q9LGC6 as listed by the source): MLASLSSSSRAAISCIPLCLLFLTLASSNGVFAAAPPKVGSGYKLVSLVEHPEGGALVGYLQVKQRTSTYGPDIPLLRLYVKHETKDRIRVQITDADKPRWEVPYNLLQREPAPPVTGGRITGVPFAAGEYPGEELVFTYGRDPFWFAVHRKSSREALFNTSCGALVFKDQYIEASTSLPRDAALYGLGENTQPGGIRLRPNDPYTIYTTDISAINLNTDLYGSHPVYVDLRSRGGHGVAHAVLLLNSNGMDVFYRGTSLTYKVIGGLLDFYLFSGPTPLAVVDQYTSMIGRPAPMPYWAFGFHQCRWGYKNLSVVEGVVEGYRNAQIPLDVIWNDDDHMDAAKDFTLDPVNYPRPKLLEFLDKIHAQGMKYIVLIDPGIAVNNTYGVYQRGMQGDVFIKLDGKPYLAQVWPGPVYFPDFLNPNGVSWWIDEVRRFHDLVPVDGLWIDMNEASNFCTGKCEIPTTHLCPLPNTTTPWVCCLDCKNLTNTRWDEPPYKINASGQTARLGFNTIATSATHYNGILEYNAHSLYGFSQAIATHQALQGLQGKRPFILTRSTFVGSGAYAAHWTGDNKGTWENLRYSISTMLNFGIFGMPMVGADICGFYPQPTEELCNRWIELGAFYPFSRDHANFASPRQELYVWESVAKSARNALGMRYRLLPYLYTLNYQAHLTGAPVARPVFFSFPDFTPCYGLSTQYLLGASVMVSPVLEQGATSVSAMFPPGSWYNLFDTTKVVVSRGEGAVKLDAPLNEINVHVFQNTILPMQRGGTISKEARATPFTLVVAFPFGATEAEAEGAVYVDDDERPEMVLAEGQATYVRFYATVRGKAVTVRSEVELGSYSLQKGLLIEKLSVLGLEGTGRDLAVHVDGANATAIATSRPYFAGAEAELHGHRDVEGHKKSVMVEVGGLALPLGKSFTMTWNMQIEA
Assay overview: Inhibition of Rice glucosidase (of family 31 alpha-glucosidase) at 1 umol/mL

| Molecule | inhibition, % |
| --- | --- |
| CC(C)(C)C(=O)NCC1OC(CO)C(O)C(O)C1O (stereo not drawn) | 3.8 |
| CC(=O)NCC1OC(CO)C(O)C(O)C1O (stereo not drawn) | 21.8 |
| O=C(CCCCCO)NCC1OC(CO)C(O)C(O)C1O (stereo not drawn) | 26 |
| O=C(CCCO)NCC1OC(CO)C(O)C(O)C1O (stereo not drawn) | 7.6 |
| O=C(CCO)NCC1OC(CO)C(O)C(O)C1O (stereo not drawn) | 8.5 |
| O=C(NCC1OC(CO)C(O)C(O)C1O)c1ccccc1 (stereo not drawn) | 16 |
| O=C(CO)NCC1OC(CO)C(O)C(O)C1O (stereo not drawn) | 10.7 |
| O=C(CCCCO)NCC1OC(CO)C(O)C(O)C1O (stereo not drawn) | 18.3 |

---

Below is a list of entries, each paired with its recorded Ki value.
Assay overview: Competitive Inhibition constant for Saccharomyces cerevisiae glucosidase

| Compound | Ki, µM |
| --- | --- |
| O=C(NCC1OC(CO)C(O)C(O)C1O)c1ccccc1 (configuration not stated) | 500 |
| O=C(CCCCO)NCC1OC(CO)C(O)C(O)C1O (configuration not stated) | 130 |

---

Experimental target: Alpha-glucosidase (Apis mellifera)
Assay overview: Inhibition of family 13 alpha-glucosidase isoform II from honey bee at 1 umol/mL
Listed here are molecules together with their documented inhibition.

| Molecule | Censoring operator | inhibition (%) |
| --- | --- | --- |
| O=C(CCCCCO)NCC1OC(CO)C(O)C(O)C1O (configuration not stated) | = | 4.4 |
| O=C(CO)NCC1OC(CO)C(O)C(O)C1O (configuration not stated) | = | 4.4 |
| CC(C)(C)C(=O)NCC1OC(CO)C(O)C(O)C1O (configuration not stated) | < | 1 |
| CC(=O)NCC1OC(CO)C(O)C(O)C1O (configuration not stated) | < | 1 |
| O=C(CCCO)NCC1OC(CO)C(O)C(O)C1O (configuration not stated) | = | 3.6 |
| O=C(CCCCO)NCC1OC(CO)C(O)C(O)C1O (configuration not stated) | = | 21.4 |
| O=C(CCO)NCC1OC(CO)C(O)C(O)C1O (configuration not stated) | = | 2.7 |

---

Experimental target: Alpha-glucosidase (Apis mellifera)
Assay overview: Inhibition of family 13 alpha-glucosidase isoform I from honey bee at 1 umol/mL
In this section we review reported inhibition values for a set of compounds.

| Compound | Experimental target | Unit string | Censoring operator | inhibition |
| --- | --- | --- | --- | --- |
| CC(C)(C)C(=O)NCC1OC(CO)C(O)C(O)C1O (configuration not stated) | Alpha-glucosidase (Apis mellifera) | % | < | 1 |
| O=C(CCCCCO)NCC1OC(CO)C(O)C(O)C1O (configuration not stated) | Alpha-glucosidase (Apis mellifera) | % | < | 1 |
| O=C(NCC1OC(CO)C(O)C(O)C1O)c1ccccc1 (configuration not stated) | Alpha-glucosidase (Apis mellifera) | % | = | 4.6 |
| O=C(CCCCO)NCC1OC(CO)C(O)C(O)C1O (configuration not stated) | Alpha-glucosidase (Apis mellifera) | % | = | 37.5 |
| O=C(CCO)NCC1OC(CO)C(O)C(O)C1O (configuration not stated) | Alpha-glucosidase (Apis mellifera) | % | < | 1 |
| CC(=O)NCC1OC(CO)C(O)C(O)C1O (configuration not stated) | Alpha-glucosidase (Apis mellifera) | % | = | 10.4 |
| O=C(CO)NCC1OC(CO)C(O)C(O)C1O (configuration not stated) | Alpha-glucosidase (Apis mellifera) | % | < | 52.3 |

---

Assay overview: Inhibitory concentration for Saccharomyces cerevisiae glucosidase (of family 13 alpha-glucosidase) at 1 umol/mL
pIC50: −log10 of the molar value.
Endpoint: pIC50

| Compound | Result |
| --- | --- |
| O=C(CCCCO)NCC1OC(CO)C(O)C(O)C1O (configuration not stated) | 4.26 |
| O=C(NCC1OC(CO)C(O)C(O)C1O)c1ccccc1 (configuration not stated) | 3.35 |

---

Experimental target: UniProt:P16278
Sequence (P16278 whole entry): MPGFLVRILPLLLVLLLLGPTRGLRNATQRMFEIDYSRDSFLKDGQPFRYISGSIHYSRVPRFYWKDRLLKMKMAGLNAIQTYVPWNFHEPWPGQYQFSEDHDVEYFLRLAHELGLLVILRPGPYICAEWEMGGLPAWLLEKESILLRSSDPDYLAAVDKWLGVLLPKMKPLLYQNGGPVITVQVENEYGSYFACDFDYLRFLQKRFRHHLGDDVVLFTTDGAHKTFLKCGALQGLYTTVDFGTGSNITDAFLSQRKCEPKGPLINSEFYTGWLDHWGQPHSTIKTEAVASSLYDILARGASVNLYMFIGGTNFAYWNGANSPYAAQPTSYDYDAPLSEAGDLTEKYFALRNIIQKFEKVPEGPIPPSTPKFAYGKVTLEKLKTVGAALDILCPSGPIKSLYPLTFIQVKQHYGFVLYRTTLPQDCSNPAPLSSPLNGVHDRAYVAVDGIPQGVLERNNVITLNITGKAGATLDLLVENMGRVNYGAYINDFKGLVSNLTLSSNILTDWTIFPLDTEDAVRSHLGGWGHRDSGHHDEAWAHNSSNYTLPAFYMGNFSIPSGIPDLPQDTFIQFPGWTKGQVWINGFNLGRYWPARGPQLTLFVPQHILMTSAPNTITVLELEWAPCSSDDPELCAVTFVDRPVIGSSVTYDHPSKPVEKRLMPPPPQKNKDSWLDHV
Assay overview: Inhibition of beta-Galactosidase at 5 umol/mL
Reported inhibition by item:
Endpoint: inhibition

| Compound | Endpoint | Result |
| --- | --- | --- |
| O=C(CCO)NCC1OC(CO)C(O)C(O)C1O (stereo not drawn) | inhibition | < 1% |
| O=C(CCCCCO)NCC1OC(CO)C(O)C(O)C1O (stereo not drawn) | inhibition | < 1% |
| O=C(CCCO)NCC1OC(CO)C(O)C(O)C1O (stereo not drawn) | inhibition | < 1% |
| O=C(CO)NCC1OC(CO)C(O)C(O)C1O (stereo not drawn) | inhibition | < 1% |
| CC(=O)NCC1OC(CO)C(O)C(O)C1O (stereo not drawn) | inhibition | < 1% |
| O=C(CCCCO)NCC1OC(CO)C(O)C(O)C1O (stereo not drawn) | inhibition | < 1% |
| O=C(NCC1OC(CO)C(O)C(O)C1O)c1ccccc1 (stereo not drawn) | inhibition | < 1% |
| CC(C)(C)C(=O)NCC1OC(CO)C(O)C(O)C1O (stereo not drawn) | inhibition | < 1% |

---

Experimental target: Alpha-glucosidase (Aspergillus niger) (UniProt P56526)
Sequence (P56526 whole entry): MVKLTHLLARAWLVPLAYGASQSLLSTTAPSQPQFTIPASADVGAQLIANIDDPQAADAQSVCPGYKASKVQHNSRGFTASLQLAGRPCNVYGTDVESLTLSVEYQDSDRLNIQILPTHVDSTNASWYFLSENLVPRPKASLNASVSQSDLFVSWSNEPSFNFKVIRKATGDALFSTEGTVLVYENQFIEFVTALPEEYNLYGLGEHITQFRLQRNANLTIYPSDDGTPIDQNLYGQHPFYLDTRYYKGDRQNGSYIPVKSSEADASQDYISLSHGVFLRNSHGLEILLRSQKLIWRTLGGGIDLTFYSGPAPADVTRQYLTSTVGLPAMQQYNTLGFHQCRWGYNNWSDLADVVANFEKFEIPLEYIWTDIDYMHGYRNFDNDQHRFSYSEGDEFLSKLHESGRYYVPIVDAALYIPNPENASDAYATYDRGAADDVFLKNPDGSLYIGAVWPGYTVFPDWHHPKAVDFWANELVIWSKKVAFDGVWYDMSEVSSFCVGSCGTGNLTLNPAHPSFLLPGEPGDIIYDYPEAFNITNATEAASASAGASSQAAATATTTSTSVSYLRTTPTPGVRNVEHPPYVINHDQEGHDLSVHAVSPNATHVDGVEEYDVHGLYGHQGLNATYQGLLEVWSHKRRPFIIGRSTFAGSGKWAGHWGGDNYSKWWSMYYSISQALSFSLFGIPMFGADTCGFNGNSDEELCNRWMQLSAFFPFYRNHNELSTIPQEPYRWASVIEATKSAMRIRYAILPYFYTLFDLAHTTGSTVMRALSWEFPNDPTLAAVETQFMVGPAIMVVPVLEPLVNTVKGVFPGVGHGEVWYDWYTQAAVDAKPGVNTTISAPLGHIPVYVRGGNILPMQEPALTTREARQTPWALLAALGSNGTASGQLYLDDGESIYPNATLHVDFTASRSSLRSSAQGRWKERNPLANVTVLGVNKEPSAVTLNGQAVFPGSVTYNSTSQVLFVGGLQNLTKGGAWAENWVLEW
Assay overview: Inhibition of Aspergillus niger glucosidase (of family 31 alpha-glucosidase) at 1 umol/mL
Recorded inhibition by entry
Endpoint: inhibition (%)

| Molecule | Experimental target | Endpoint | Censoring operator | Result |
| --- | --- | --- | --- | --- |
| O=C(CCCCCO)NCC1OC(CO)C(O)C(O)C1O (stereo not drawn) | Alpha-glucosidase (Aspergillus niger) (UniProt P56526) | inhibition | < | 1 |
| CC(C)(C)C(=O)NCC1OC(CO)C(O)C(O)C1O (stereo not drawn) | Alpha-glucosidase (Aspergillus niger) (UniProt P56526) | inhibition | = | 1.2 |
| O=C(CCCCO)NCC1OC(CO)C(O)C(O)C1O (stereo not drawn) | Alpha-glucosidase (Aspergillus niger) (UniProt P56526) | inhibition | = | 6.8 |
| O=C(CO)NCC1OC(CO)C(O)C(O)C1O (stereo not drawn) | Alpha-glucosidase (Aspergillus niger) (UniProt P56526) | inhibition | = | 6.6 |
| CC(=O)NCC1OC(CO)C(O)C(O)C1O (stereo not drawn) | Alpha-glucosidase (Aspergillus niger) (UniProt P56526) | inhibition | = | 23.3 |
| O=C(CCO)NCC1OC(CO)C(O)C(O)C1O (stereo not drawn) | Alpha-glucosidase (Aspergillus niger) (UniProt P56526) | inhibition | = | 2.6 |
| O=C(CCCO)NCC1OC(CO)C(O)C(O)C1O (stereo not drawn) | Alpha-glucosidase (Aspergillus niger) (UniProt P56526) | inhibition | < | 1 |
| O=C(NCC1OC(CO)C(O)C(O)C1O)c1ccccc1 (stereo not drawn) | Alpha-glucosidase (Aspergillus niger) (UniProt P56526) | inhibition | = | 14 |

---

Test system: Saccharomyces cerevisiae
Assay overview: Inhibition of Saccharomyces cerevisiae glucosidase (of family 13 alpha-glucosidase) by compound with concentration 1 umol/mI

| Molecule | Censoring operator | inhibition / % |
| --- | --- | --- |
| O=C(CCCCCO)NCC1OC(CO)C(O)C(O)C1O (stereo not drawn) | < | 1 |
| O=C(CCCCO)NCC1OC(CO)C(O)C(O)C1O (stereo not drawn) | = | 100 |
| O=C(CCCO)NCC1OC(CO)C(O)C(O)C1O (stereo not drawn) | < | 1 |
| O=C(CO)NCC1OC(CO)C(O)C(O)C1O (stereo not drawn) | < | 1 |
| CC(=O)NCC1OC(CO)C(O)C(O)C1O (stereo not drawn) | < | 1 |
| CC(C)(C)C(=O)NCC1OC(CO)C(O)C(O)C1O (stereo not drawn) | = | 6.1 |
| O=C(NCC1OC(CO)C(O)C(O)C1O)c1ccccc1 (stereo not drawn) | = | 67.4 |
| O=C(CCO)NCC1OC(CO)C(O)C(O)C1O (stereo not drawn) | = | 21.1 |
